Assay: Oral bioavailability in human
Type: ADME, organism-based
Settings: in vivo
Readout kind: bioavailability (%)
Lab book: enter the figure in %, no units written.

Challenge: Name the recorded bioavailability for `C[C@@H]1CCC[C@H](n2cnc(-c3cc(Cl)ccc3-n3cc(Cl)nn3)cc2=O)c2cc(ccn2)-c2c(cnn2C(F)F)NC1=O` .
Response given: 18

* * *

Assay: Cmax in human at 8 mg/kg, po
Assay type: ADME, organism-based
Settings: in vivo
Readout kind: Cmax (nM)
The reply should contain only the number, in nM.

Challenge: May I ask what Cmax has been recorded for C[C@@H]1CN[C@@H](C2CC2)C(=O)N(C)[C@H](C)C(=O)N[C@H](Cc2ccc(F)cc2)C(=O)NCCCc2ccccc2O1 [ULIMORELIN] ?
Response given: 1400
